These data points were gathered from patent US20070117743A1.

tested on: IGROV-1; test: SRB colorimetric assay of cell growth and viability, IGROV-1; format: cell-based, human; settings: 48 hours exposure
Where a SMILES comes first, the peptide text is derived from it. Bridges are numbered along the chain shown (N, C = ends). [ ]: non-standard residue; d: D form. The star is where a group is joined. d(aIle) = CC[C@H](C)[C@@H](N)C(=O)O; d(aThr) = C[C@@H](O)[C@@H](N)C(=O)O; Hexanoyl(5-Me) = CC(C)CCCC(=O)*; Orn = NCCC[C@H](N)C(=O)O; Dhb = C/C=C(\N)C(=O)O
Listed next: entries and their corresponding LC50 (concentration causing 50% net cell killing).
Expressed in µM, but write only the number.

C/C=C1\NC(=O)[C@H](Cc2ccccc2)NC(=O)[C@@H](C(C)C)NC(=O)[C@@H]([C@@H](C)CC)NC(=O)[C@H](NC(=O)[C@H](NC(=O)[C@H](CCCN)NC(=O)[C@H]2CCCN2C(=O)[C@H](NC(=O)[C@H](Cc2ccccc2)NC(=O)[C@@H](NC(=O)[C@H](NC(=O)CCCC(C)C)C(C)C)[C@@H](C)O)C(C)C)[C@@H](C)CC)[C@@H](C)OC(=O)[C@H](C(C)C)NC1=O [Compound 43, [Phe^11]-KF] ({Hexanoyl(5-Me)}-[dV]TF[dV][dP][Orn][d(aIle)][d(aThr)][d(aIle)][dV]F[Dhb]V; ester 8-C) ... 3.68

With those in mind, consider the next molecule.
Request: Quick check: LC50 (concentration causing 50% net cell killing) of C/C=C1\NC(=O)[C@H](Cc2ccccc2)NC(=O)[C@@H](C(C)C)NC(=O)[C@@H]([C@@H](C)CC)NC(=O)[C@H](NC(=O)[C@H](NC(=O)[C@H](CCCN)NC(=O)[C@H]2CCCN2C(=O)[C@H](NC(=O)[C@@H](NC(=O)[C@@H](NC(=O)[C@@H](CCC(N)=O)NC(=O)CCCC(C)C)[C@@H](C)O)C(C)C)C(C)C)[C@@H](C)CC)[C@@H](C)OC(=O)[C@H](C(C)C)NC1=O [Compound 40, [D-Gln^13]-KF] ?
Result: 3.62
